biological target: AURKB (Aurora kinase B) (Homo sapiens); assay: Inhibition of AURKB in human HEK293T cells assessed as reduction in cell viability at 10 uM measured after 48 hrs relative to control; format: cell-based, HEK-293T
measurement_label: inhibition at 48 h, 10 µM (%)
Give the number; % is assumed, so skip it.

Could you share what inhibition at 48 h, 10 µM was measured for O=C(NC[C@H](O)CO)c1ccncc1Nc1ccc(I)cc1F , tested on AURKB (Aurora kinase B) (Homo sapiens)?
10

---

target: AURKB (Aurora kinase B) (Homo sapiens, UniProt Q96GD4); test: Inhibition of AURKB in human HEK293T cells assessed as reduction in cell viability at 90 to 270 nM measured after 48 hrs in presence of 40 nM AZD-1152-HQPA relative to control; format: cell-based, HEK-293T
Sequence (Q96GD4 whole entry): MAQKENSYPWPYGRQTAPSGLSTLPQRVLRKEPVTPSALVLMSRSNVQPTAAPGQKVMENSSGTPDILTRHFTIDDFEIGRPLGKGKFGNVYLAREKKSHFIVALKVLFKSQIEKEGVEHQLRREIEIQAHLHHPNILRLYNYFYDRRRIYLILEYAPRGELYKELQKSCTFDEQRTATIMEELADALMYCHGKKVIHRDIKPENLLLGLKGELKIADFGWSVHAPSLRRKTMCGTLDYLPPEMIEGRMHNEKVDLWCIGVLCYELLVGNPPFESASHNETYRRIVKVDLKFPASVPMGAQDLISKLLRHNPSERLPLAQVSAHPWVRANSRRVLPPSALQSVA
measurement_label: inhibition at 48 h, up to 0.27 µM (%)
Respond with the bare value in %.

Give its inhibition at 48 h, up to 0.27 µM value. Item: CCOC(=O)c1cnc2ccc(-c3ccncc3)nc2c1N[C@H]1CC[C@H](CN(C)C)CC1
67

---

experiment: Cytotoxicity against mouse R7T1 cells assessed as reduction in cell viability measured after 48 hrs by Hoechst 33342 staining based analysis
measurement_label: CC50 (µM)
Dear colleague, please return just the value in µM, with no unit written.

| smi | CC50 (µM) |
| --- | --- |
| CCOC(=O)c1cnc2ccc(-c3ccnc(N)c3)nc2c1N[C@H]1CC[C@H](CN2CCOCC2)CC1 | 0.856 |
| CCOC(=O)c1cnc2ccc(-c3ccncc3)nc2c1N[C@H]1CC[C@H](CN(C)C)CC1 | 3.86 |
| CC(=O)c1cnc2ccc(-c3cc(Cl)c(O)c(Cl)c3)nc2c1N[C@H]1CC[C@H](CN(C)C)CC1 | 0.02 |

// CC50 lookup, key: CC(=O)c1cnc2ccc(-c3cc(Cl)c(O)c(Cl)c3)nc2c1N[C@H]1CC[C@H](C(N)=O)CC1
0.231

Fill in the blank: the reported CC50 of CN(C)C[C@H]1CC[C@H](Nc2c(C#N)cnc3ccc(-c4cc(Cl)c(O)c(Cl)c4)nc23)CC1 is ____.
0.16

Given CCOC(=O)c1cnc2ccc(-c3cc(Cl)c(O)c(Cl)c3)nc2c1N[C@H]1CC[C@H](CC(N)=O)CC1 , state its recorded CC50.
1.39

Entry CC(=O)NC[C@H]1CC[C@H](Nc2c(CO)cnc3ccc(-c4cc(Cl)c(O)c(Cl)c4)nc23)CC1 has what CC50?
1.71

Could you share which CC50 value was measured for CCCCNC(=O)c1cnc2ccc(-c3cc(Cl)c(O)c(Cl)c3)nc2c1N[C@H]1CC[C@H](C(=O)N2CCOCC2)CC1 ?
2.44

Any idea what its CC50 is? The compound is CCOC(=O)c1cnc2ccc(-c3cc(Cl)c(O)c(Cl)c3)nc2c1N[C@H]1CC[C@H](CO)CC1
0.785

# input compound: CCOC(=O)c1cnc2ccc(-c3ccnc(N)c3)nc2c1N[C@H]1CC[C@H](CN(C)C)CC1 ; wanted: its CC50
0.328

Which CC50 value belongs to CCOC(=O)c1cnc2ccc(-c3cc(Cl)c(O)c(Cl)c3)nc2c1N[C@H]1CC[C@H](CNC(C)=O)CC1 ?
1.02

Data request, read-out CC50, for CCCCNC(=O)c1cnc2ccc(-c3cc(Cl)c(O)c(Cl)c3)nc2c1N[C@H]1CC[C@H](C(N)=O)CC1
1.79

Tell me the measured CC50 of CCOC(=O)c1cnc2ccc(-c3cc(Cl)c(O)c(Cl)c3)nc2c1NC1CCN(C)CC1 , please.
0.387

What value of CC50 has been reported for the following compound? NC(=O)C[C@H]1CC[C@H](Nc2c(CO)cnc3ccc(-c4cc(Cl)c(O)c(Cl)c4)nc23)CC1
1.08

---

We begin with a simple list: items and their reported MEC.
molecular target: Dual specificity tyrosine-phosphorylation-regulated kinase 1A (Homo sapiens, UniProt Q13627); test: Inhibition of DYRK1A in human pancreatic islets assessed as induction of pancreatic beta-cells replication measured after 48 hrs by Hoechst 33342 staining based analysis
Field format: number, assumed nM, no unit text.

| smi | MEC (nM) |
| --- | --- |
| CCOC(=O)c1cnc2ccc(-c3ccnc(N)c3)nc2c1N[C@H]1CC[C@H](CN2CCOCC2)CC1 | 3.3 |
| CC(=O)c1cnc2ccc(-c3cc(Cl)c(O)c(Cl)c3)nc2c1N[C@H]1CC[C@H](C(N)=O)CC1 | 125 |
| CCOC(=O)c1cnc2ccc(-c3cc(Cl)c(O)c(Cl)c3)nc2c1N[C@H]1CC[C@H](C(=O)N2CCOCC2)CC1 | 250 |

Continue with the molecule presented below.
What does the record list as MEC for CN(C)C[C@H]1CC[C@H](Nc2c(C#N)cnc3ccc(-c4cc(Cl)c(O)c(Cl)c4)nc23)CC1 ?
10

---

Attribute: MEC
target: UniProtKB Q13627; assay: Inhibition of DYRK1A in human pancreatic islets assessed as induction of pancreatic beta-cells replication measured after 48 hrs by Hoechst 33342 staining based analysis
The reply should be a number in nM, with the unit left off.

| smi | measurement_label | value_units | val |
| --- | --- | --- | --- |
| CCOC(=O)c1cnc2ccc(-c3ccnc(N)c3)nc2c1N[C@H]1CC[C@H](CN(C)C)CC1 | MEC | nM | 22 |

Endpoint output: MEC of CC(=O)c1cnc2ccc(-c3cc(Cl)c(O)c(Cl)c3)nc2c1N[C@H]1CC[C@H](CN(C)C)CC1 . Value?
5

Given the compound CCOC(=O)c1cnc2ccc(-c3cc(Cl)c(O)c(Cl)c3)nc2c1N[C@H]1CC[C@H](CO)CC1 , what is its reported MEC?
250

---

In this section we review reported t1/2 values for a set of compounds.
assay: Half life in human liver microsomes at 1 uM preincubated for 10 mins followed by NADPH addition and measured up to 40 mins by LC-MS/MS analysis; format: ADME, Microsome
Answer in h, number only, no unit symbol.

Examples from the recorded data:
| smi | t1/2 (h) |
| --- | --- |
| CCOC(=O)c1cnc2ccc(-c3cc(Cl)c(O)c(Cl)c3)nc2c1N[C@H]1CC[C@H](CC(N)=O)CC1 | 0.467 |
| CCOC(=O)c1cnc2ccc(-c3ccnc(N)c3)nc2c1N[C@H]1CC[C@H](CN2CCOCC2)CC1 | 0.617 |
| CCOC(=O)c1cnc2ccc(-c3ccncc3)nc2c1N[C@H]1CC[C@H](CN(C)C)CC1 | 0.533 |

Which t1/2 is listed for CCCCNC(=O)c1cnc2ccc(-c3cc(Cl)c(O)c(Cl)c3)nc2c1N[C@H]1CC[C@H](C(=O)N2CCOCC2)CC1 ?
1.58

---

biological target: AURKB (Aurora kinase B) (Homo sapiens, UniProt Q96GD4); assay: Inhibition of AURKB in human HEK293T cells assessed as reduction in cell viability at 90 nM measured after 48 hrs in presence of 3 uM MK-5108 relative to control; format: cell-based, HEK-293T
measurement_label: inhibition at 48 h, 0.09 µM (%)
Just the number please, in %, no unit attached.

What does the data say about its inhibition at 48 h, 0.09 µM? Entry: CCOC(=O)c1cnc2ccc(-c3ccncc3)nc2c1N[C@H]1CC[C@H](CN(C)C)CC1
36

---

organism: Homo sapiens; test: Selectivity index, ratio of CC50 for human HEK293T cells transfected with DYRK1A co-tranfected with Renilla plasmid, pGL3-NFAT and NFATc1 assessed as reduction in luciferase activity by measuring cell number to EC50 for human DYRK1A transfected in HEK293T cells co-transfected with Renilla plasmid, pGL3-NFAT and NFATc1 assessed as derepression of NFAT-dependent luciferase activity measured after 48 hrs by luciferase assay; format: cell-based
Parameter threshold = 20. Response is Satisfied when Ratio CC50/EC50 meets or exceeds it, else Not satisfied.

| smi | cat |
| --- | --- |
| CCOC(=O)c1cnc2ccc(-c3cc(Cl)c(O)c(Cl)c3)nc2c1N[C@H]1CC[C@H](CN2CCOCC2)CC1 | Satisfied |

Say whether CCCCNC(=O)c1cnc2ccc(-c3cc(Cl)c(O)c(Cl)c3)nc2c1N[C@H]1CC[C@H](C(N)=O)CC1 shows Ratio CC50/EC50 of 20 or more.
Satisfied

Dear colleague, could you confirm whether CC(=O)NC[C@H]1CC[C@H](Nc2c(CO)cnc3ccc(-c4cc(Cl)c(O)c(Cl)c4)nc23)CC1 has Ratio CC50/EC50 at or above 20?
Satisfied

---

molecular target: Dual specificity tyrosine-phosphorylation-regulated kinase 1A (Homo sapiens); test: Inhibition of DYRK1A in human pancreatic islets assessed as induction of pancreatic beta-cells replication measured after 48 hrs by Hoechst 33342 staining based analysis
measurement_label: MEC (nM)
Value expressed in nM; do not type the unit.

// below: answered compounds
| smi | value_units | val |
| --- | --- | --- |
| CCOC(=O)c1cnc2ccc(-c3cc(Cl)c(O)c(Cl)c3)nc2c1N[C@H]1CC[C@H](CC(N)=O)CC1 | nM | 63 |
| CCOC(=O)c1cnc2ccc(-c3ccncc3)nc2c1N[C@H]1CC[C@H](CN(C)C)CC1 | nM | 27 |
| CCOC(=O)c1cnc2ccc(-c3cc(C)c(O)c(C)c3)nc2c1N[C@H]1CC[C@H](CN(C)C)CC1 | nM | 250 |

Given NC(=O)C[C@H]1CC[C@H](Nc2c(CO)cnc3ccc(-c4cc(Cl)c(O)c(Cl)c4)nc23)CC1 , state its recorded MEC.
500

Reported MEC for CCOC(=O)c1cnc2ccc(-c3cc(Cl)c(O)c(Cl)c3)nc2c1N1CCNCC1 : what is it?
250

What value of MEC has been recorded for this entry: CCOC(=O)c1cnc2ccc(-c3cc(Cl)c(O)c(Cl)c3)nc2c1Nc1ccc(CN(C)C)cc1
31

Would you kindly share the measured MEC for CCOC(=O)c1cnc2ccc(-c3cc(Cl)c(O)c(Cl)c3)nc2c1N[C@H]1CC[C@H](CNC(C)=O)CC1 ?
68

Query (compound): CCOC(=O)c1cnc2ccc(-c3cc(Cl)c(O)c(Cl)c3)nc2c1NC1CCN(C)CC1 ; field requested: MEC
3.3
